Exercise: for every item that follows, state its recorded Emax at 100 µM.
Biological target: human alpha1 nicotinic acetylcholine (nACh) receptor (Homo sapiens, UniProt P02708)
Sequence (P02708 21-457): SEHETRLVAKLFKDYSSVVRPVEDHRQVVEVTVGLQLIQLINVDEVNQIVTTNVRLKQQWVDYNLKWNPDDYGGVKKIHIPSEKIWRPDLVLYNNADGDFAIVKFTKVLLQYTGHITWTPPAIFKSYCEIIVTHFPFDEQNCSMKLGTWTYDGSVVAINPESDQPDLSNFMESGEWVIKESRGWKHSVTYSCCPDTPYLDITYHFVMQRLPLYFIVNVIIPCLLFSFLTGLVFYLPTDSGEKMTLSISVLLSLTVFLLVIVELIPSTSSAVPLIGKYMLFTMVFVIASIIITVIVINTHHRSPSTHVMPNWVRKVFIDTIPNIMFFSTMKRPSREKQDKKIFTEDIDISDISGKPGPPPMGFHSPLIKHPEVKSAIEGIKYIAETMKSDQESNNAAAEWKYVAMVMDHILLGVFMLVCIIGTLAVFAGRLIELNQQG
Sequence (P11230 24-501 partner): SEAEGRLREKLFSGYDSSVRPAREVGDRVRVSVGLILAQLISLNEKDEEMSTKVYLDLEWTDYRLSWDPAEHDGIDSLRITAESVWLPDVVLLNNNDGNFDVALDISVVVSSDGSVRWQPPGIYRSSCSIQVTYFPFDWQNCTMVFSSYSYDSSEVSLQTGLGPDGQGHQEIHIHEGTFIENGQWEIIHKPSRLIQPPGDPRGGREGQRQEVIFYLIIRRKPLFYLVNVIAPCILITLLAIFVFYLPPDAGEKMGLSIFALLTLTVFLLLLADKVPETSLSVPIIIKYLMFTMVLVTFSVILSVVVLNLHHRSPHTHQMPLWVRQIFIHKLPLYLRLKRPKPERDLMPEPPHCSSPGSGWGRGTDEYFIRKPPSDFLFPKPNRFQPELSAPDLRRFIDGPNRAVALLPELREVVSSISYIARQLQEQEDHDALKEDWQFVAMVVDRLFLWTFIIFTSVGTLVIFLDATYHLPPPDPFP
Sequence (Q07001 22-517 partner): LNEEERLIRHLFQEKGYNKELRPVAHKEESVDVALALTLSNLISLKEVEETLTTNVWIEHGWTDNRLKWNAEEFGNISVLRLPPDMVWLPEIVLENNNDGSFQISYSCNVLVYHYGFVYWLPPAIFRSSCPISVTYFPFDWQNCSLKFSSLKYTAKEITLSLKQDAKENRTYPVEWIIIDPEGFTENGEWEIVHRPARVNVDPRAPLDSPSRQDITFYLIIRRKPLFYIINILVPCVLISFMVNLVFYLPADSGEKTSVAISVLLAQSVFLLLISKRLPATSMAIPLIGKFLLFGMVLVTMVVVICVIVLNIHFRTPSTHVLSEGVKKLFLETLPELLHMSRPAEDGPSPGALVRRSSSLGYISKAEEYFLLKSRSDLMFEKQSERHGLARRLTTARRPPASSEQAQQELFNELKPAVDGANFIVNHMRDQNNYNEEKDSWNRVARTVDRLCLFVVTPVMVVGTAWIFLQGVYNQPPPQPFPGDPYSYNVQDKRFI
Test: Nicotinic acetylcholine receptor antagonism assay, IONFlux automated patch clamp (Example 203)
Format: cell-based
Conditions: maximum percentage antagonism at maximum concentration tested 100 μM; read-out: Maximum Response
Description: Cells expressing human alpha1 nicotinic acetylcholine (nACh) receptor (nAChR) were washed and dissociated using Trypsin containing buffer. Cells were then washed and seeded at a density of 3-5 million cells/mL and allowed to grow for 3 days. […] The receptor was then stimulated via addition of acetylcholine (ACh) and activation of the receptor was monitored via the IONFlux automated patch clamp system. […]
Give bare numbers, in %.

Here are 3 compounds together with their reported answers.
- SMILES_NOTATION: "CC(C)N(C)[C@@H]1CC[C@H](N2CC[C@H](Nc3ncnc4ccc(C(F)(F)F)cc34)C2=O)[C@H](NC(=O)CCOCCC(=O)N[C@H]2C[C@H](C(=O)NCCOCCNC(=O)[C@H]3CC(=O)N(C)[C@@H]3c3cccnc3)C2)C1"
  UNIT_TEXT: "%"
  Emax at 100 µM: 63.7
- SMILES_NOTATION: "CC(C)N(C)[C@@H]1CC[C@H](N2CC[C@H](Nc3ncnc4ccc(C(F)(F)F)cc34)C2=O)[C@H](NC(=O)COCCNC(=O)COCCNC(=O)COCCNC(=O)[C@H]2CC(=O)N(C)[C@@H]2c2cccnc2)C1"
  UNIT_TEXT: "%"
  Emax at 100 µM: 67.6
- SMILES_NOTATION: "CC(C)N(C)[C@@H]1CC[C@H](N2CC[C@H](Nc3ncnc4ccc(C(F)(F)F)cc34)C2=O)[C@H](NC(=O)CCNC(=O)CCCOC[C@H]2CC[C@@H](COCCNC(=O)[C@H]3CC(=O)N(C)[C@@H]3c3cccnc3)CC2)C1"
  UNIT_TEXT: "%"
  Emax at 100 µM: 67.9

Turning now to a further compound:
Entry under test: CN1C(=O)C[C@H](C(=O)NCCOCCOCCOCCC(=O)N[C@H]2CC[C@@H](C(=O)N[C@@H]3C[C@H](NC(C)(C)C)CC[C@@H]3N3CC[C@H](Nc4ncnc5ccc(C(F)(F)F)cc45)C3=O)CC2)[C@H]1c1cccnc1 . Its Emax at 100 µM was 50.5

---

Molecular target: human alpha1 nicotinic acetylcholine (nACh) receptor (Homo sapiens, UniProt P02708)
Assay: Nicotinic acetylcholine receptor antagonism assay, IONFlux automated patch clamp (Example 203)
Type: cell-based
Details: maximum percentage antagonism at maximum concentration tested 10 μM; read-out: Maximum Response
PARAMETER: Emax at 10 µM (%)
Answers are plain numbers, in %.

Here are 7 molecules together with their reported answers.
- SMILES_NOTATION: "CC(C)N(C)[C@@H]1CC[C@H](N2CC[C@H](Nc3ncnc4ccc(C(F)(F)F)cc34)C2=O)[C@H](NC(=O)[C@H]2CC[C@@H](CC(=O)CCCOC[C@H]3CC[C@H](COCCNC(=O)[C@H]4CC(=O)N(C)[C@@H]4c4cccnc4)CC3)CC2)C1"
  Emax at 10 µM, %: 18.2
- SMILES_NOTATION: "CC(C)N(C)[C@@H]1CC[C@H](N2CC[C@H](Nc3ncnc4ccc(C(F)(F)F)cc34)C2=O)[C@H](NC(=O)[C@H]2CC[C@H](NC(=O)CCOCCOCCOCCNC(=O)[C@H]3CC(=O)N(C)[C@@H]3c3cccnc3)CC2)C1"
  Emax at 10 µM, %: 5.4
- SMILES_NOTATION: "CC(C)N(C)[C@@H]1CC[C@H](N2CC[C@H](Nc3ncnc4ccc(C(F)(F)F)cc34)C2=O)[C@H](NC(=O)CCCN2CCC3(CCN(CCCNC(=O)[C@H]4CC(=O)N(C)[C@@H]4c4cccnc4)CC3)CC2)C1"
  Emax at 10 µM, %: 74
- SMILES_NOTATION: "CC(C)N(C)[C@@H]1CC[C@H](N2CC[C@H](Nc3ncnc4ccc(C(F)(F)F)cc34)C2=O)[C@H](NC(=O)CCOCCNC(=O)[C@H]2CC[C@@H](NC(=O)COCCNC(=O)[C@H]3CC(=O)N(C)[C@@H]3c3cccnc3)CC2)C1"
  Emax at 10 µM, %: 12.2
- SMILES_NOTATION: "CC(C)N(C)[C@@H]1CC[C@H](N2CC[C@H](Nc3ncnc4ccc(C(F)(F)F)cc34)C2=O)[C@H](NC(=O)CCOCCN2CCC3(CCC(C(=O)NCCNC(=O)[C@H]4CC(=O)N(C)[C@@H]4c4cccnc4)CC3)CC2)C1"
  Emax at 10 µM, %: 69.2
- SMILES_NOTATION: "CC(C)N(C)[C@@H]1CC[C@H](N2CC[C@H](Nc3ncnc4ccc(C(F)(F)F)cc34)C2=O)[C@H](NC(=O)[C@H]2CC[C@H](C3CCN(C(=O)CCOCCOCCNC(=O)[C@H]4CC(=O)N(C)[C@@H]4c4cccnc4)CC3)CC2)C1"
  Emax at 10 µM, %: 4.1
- SMILES_NOTATION: "CC(C)N(C)[C@@H]1CC[C@H](N2CC[C@H](Nc3ncnc4ccc(C(F)(F)F)cc34)C2=O)[C@H](NC(=O)C2CCN(c3ccc(C(=O)NCCOCCOCCNC(=O)[C@H]4CC(=O)N(C)[C@@H]4c4cccnc4)cc3)CC2)C1"
  Emax at 10 µM, %: 13.1

Entry under test: CN1C(=O)C[C@H](C(=O)NCCOCCOCCOCCOCCOCCOCCC(=O)N[C@@H]2C[C@H](NC(C)(C)C)CC[C@@H]2N2CC[C@H](Nc3ncnc4ccc(C(F)(F)F)cc34)C2=O)[C@H]1c1cccnc1 . Its Emax at 10 µM was -2.2

---

Biological target: anti-cotinine antibody (SEQ ID NO: 11/12, rabbit variable region with human IgG1 Fc DE mutation)
Assay: SPR binding of anti-cotinine antibody to ARM compounds, Biacore T200, 37° C. (Example 202)
Conditions: SPR Biacore T200, 37° C., pH 7.4, antibody SEQ ID NO: 11/12 captured on protein A; Kd in molar
Exercise: for every item that follows, state its recorded pKd of Antibody for ARM Compound of Formula (I).
Give bare numbers.

- MOLECULE: "CC(C)N(C)[C@@H]1CC[C@H](N2CC[C@H](Nc3ncnc4ccc(C(F)(F)F)cc34)C2=O)[C@H](NC(=O)CCOCCNC(=O)CCCO[C@H]2CC[C@@H](OCCNC(=O)[C@H]3CC(=O)N(C)[C@@H]3c3cccnc3)CC2)C1 [Example 6]"
  EXPERIMENTAL_VALUE: 9.282
- MOLECULE: "CC(C)N(C)[C@@H]1CC[C@H](N2CC[C@H](Nc3ncnc4ccc(C(F)(F)F)cc34)C2=O)[C@H](NC(=O)CCOCCOCCOCCOCCOCCOCCNC(=O)[C@H]2CC(=O)N(C)[C@@H]2c2cccnc2)C1 [Example 41]"
  EXPERIMENTAL_VALUE: 9.3615
- MOLECULE: "CC(C)N(C)[C@@H]1CC[C@H](N2CC[C@H](Nc3ncnc4ccc(C(F)(F)F)cc34)C2=O)[C@H](NC(=O)CCOCCNC(=O)COCCNC(=O)COCCNC(=O)[C@H]2CC(=O)N(C)[C@@H]2c2cccnc2)C1 [Example 102]"
  EXPERIMENTAL_VALUE: 9.076

Could I get pKd of Antibody for ARM Compound of Formula (I) for every one of these entries?
1. CC(C)N(C)[C@@H]1CC[C@H](N2CC[C@H](Nc3ncnc4ccc(C(F)(F)F)cc34)C2=O)[C@H](NC(=O)CCNC(=O)CCCOC[C@H]2CC[C@@H](COCCNC(=O)[C@H]3CC(=O)N(C)[C@@H]3c3cccnc3)CC2)C1 [Example 62]
2. CC(C)N(C)[C@@H]1CC[C@H](N2CC[C@H](Nc3ncnc4ccc(C(F)(F)F)cc34)C2=O)[C@H](NC(=O)[C@H]2CC[C@H](C(=O)NCCCOCCCCOCCCNC(=O)[C@H]3CC(=O)N(C)[C@@H]3c3cccnc3)CC2)C1 [Example 194]
3. CN1C(=O)C[C@H](C(=O)NCCOCC(=O)NCCOCC(=O)NCCOCCC(=O)N[C@@H]2C[C@H](NC(C)(C)C)CC[C@@H]2N2CC[C@H](Nc3ncnc4ccc(C(F)(F)F)cc34)C2=O)[C@H]1c1cccnc1 [Example 103]
4. CC(C)N(C)[C@@H]1CC[C@H](N2CC[C@H](Nc3ncnc4ccc(C(F)(F)F)cc34)C2=O)[C@H](NC(=O)[C@H]2CC[C@@H](NC(=O)CCCO[C@H]3CC[C@H](NC(=O)CCNC(=O)[C@@H]4CC(=O)N(C)[C@H]4c4cccnc4)CC3)CC2)C1 [Example 52]

Reply text:
9.6305
9.5415
9.0985
9.2545

---

Tested on: endogenous target monocytes in human PBMC
Assay: PBMC ex vivo monocyte depletion flow cytometry assay (Example 200)
Assay type: cell-based
Conditions: with anti-cotinine antibody (SEQ ID NO: 11/12), 18-24 hours, EC50 in molar, read-out: Ex Vivo Depletion Assay pEC50 (converted)
Exercise: for every item that follows, state its recorded EC50.
One number for each entry, in nM.

- MOLECULE: "CC(C)N(C)[C@@H]1CC[C@H](N2CC[C@H](Nc3ncnc4ccc(C(F)(F)F)cc34)C2=O)[C@H](NC(=O)COCCOCCNC(=O)COCCNC(=O)CCNC(=O)[C@H]2CC(=O)N(C)[C@@H]2c2cccnc2)C1 [Example 74]"
  EC50, nM: 100000
- MOLECULE: "CC(C)N(C)[C@@H]1CC[C@H](N2CC[C@H](Nc3ncnc4ccc(C(F)(F)F)cc34)C2=O)[C@H](NC(=O)CCCN2CCC3(CCN(CCCNC(=O)[C@H]4CC(=O)N(C)[C@@H]4c4cccnc4)CC3)CC2)C1 [Example 191]"
  EC50, nM: 0.501
- MOLECULE: "CC(C)N(C)[C@@H]1CC[C@H](N2CC[C@H](Nc3ncnc4ccc(C(F)(F)F)cc34)C2=O)[C@H](NC(=O)c2ccc([C@H]3CC[C@@H](C(=O)NCCOCCOCCNC(=O)[C@H]4CC(=O)N(C)[C@@H]4c4cccnc4)CC3)cc2)C1 [Example 133]"
  EC50, nM: 1.26
- MOLECULE: "CC(C)N(C)[C@@H]1CC[C@H](N2CC[C@H](Nc3ncnc4ccc(C(F)(F)F)cc34)C2=O)[C@H](NC(=O)COCCNC(=O)CCOCCNC(=O)COCCNC(=O)[C@H]2CC(=O)N(C)[C@@H]2c2cccnc2)C1 [Example 104]"
  EC50, nM: 0.631
- MOLECULE: "CC(C)N(C)[C@@H]1CC[C@H](N2CC[C@H](Nc3ncnc4ccc(C(F)(F)F)cc34)C2=O)[C@H](NC(=O)[C@H]2CC[C@@H](NC(=O)CCCO[C@H]3CC[C@H](NC(=O)CCNC(=O)[C@@H]4CC(=O)N(C)[C@H]4c4cccnc4)CC3)CC2)C1 [Example 52]"
  EC50, nM: 0.2
- MOLECULE: "CC(C)N(C)[C@@H]1CC[C@H](N2CC[C@H](Nc3ncnc4ccc(C(F)(F)F)cc34)C2=O)[C@H](NC2CCN(C(=O)CCOCCOCCOCCOCCNC(=O)[C@H]3CC(=O)N(C)[C@@H]3c3cccnc3)CC2)C1 [Example 69]"
  EC50, nM: 1.58
- MOLECULE: "CC(C)N(C)[C@@H]1CC[C@H](N2CC[C@H](Nc3ncnc4ccc(C(F)(F)F)cc34)C2=O)[C@H](NC(=O)C2CCN(c3cnc(NCCOCCOCCNC(=O)[C@H]4CC(=O)N(C)[C@@H]4c4cccnc4)cn3)CC2)C1 [Example 162]"
  EC50, nM: 1.58

Turning now to a further molecule:
Entry under test: CC(C)N(C)[C@@H]1CC[C@H](N2CC[C@H](Nc3ncnc4ccc(C(F)(F)F)cc34)C2=O)[C@H](NC(=O)CCOCCNC(=O)[C@H]2CC[C@H](NC(=O)COCCNC(=O)[C@H]3CC(=O)N(C)[C@@H]3c3cccnc3)CC2)C1 [Example 108] . Its EC50 was 0.398
